# settings: mouse, in vivo, iv, 10 mg/kg
*1 amine or outer side, *2 acyl side, *3 side chain or, on linkers, in order; H or OH if unused. Where a SMILES comes first, the peptide text is derived from it. Bridges are numbered along the chain shown (N, C = ends). Glutaryl = O=C(CCCC(=O)[*:2])[*:1]

{"molecule": "CC[C@H](C)[C@@H]1NC(=O)[C@H](CCSC)NC(=O)CCCC(=O)NCCCC[C@@H](C(N)=O)NC(=O)[C@H]([C@@H](C)O)NC(=O)CNC(=O)[C@H](C)NC(=O)[C@H](C(C)C)NC(=O)[C@H](Cc2ccccc2)NC(=O)[C@H](CCC(=O)O)NC(=O)[C@H](Cc2ccc(O)cc2)NC(=O)[C@H](Cc2c[nH]c3ccccc23)NC(=O)[C@H]([C@@H](C)O)NC1=O [cycGIBP, reference compound] (MITWYEFVAGTK-NH2; linker N-12 via Glutaryl)", "half-life": "3.1 min"}
